B1: CPEB3 Ribozyme (parent)
chain: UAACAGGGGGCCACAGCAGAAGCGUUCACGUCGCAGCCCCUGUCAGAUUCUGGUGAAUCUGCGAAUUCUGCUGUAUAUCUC

Variants of: B1
run.description: self-cleavage, relative activity (ratio to wild type); higher = more cleavage; in vitro, sequencing
result.type: self-cleavage

> print(dat)
    mutation.string  value
 1         G6A A15C   0.42
 2         A5U C71A   0.48
 3        C32A U78C    0.2
 4        G19A U60G    0.4
 5         G8A A28G   0.23
 6         A2G G52U   0.77
 7        G70U U78A   0.48
 8        A18G C23G   0.61
 9        U41A U74C    0.4
10        C37U U72C   0.79
11        A15C A21C   0.26
12         A5U U67A   0.63
13        G22C U31A   0.12
14        C12A U41C   0.99
15         A5U G33C   0.16
16        U66A U80A   0.49
17        C40U U51C   0.65
18        A57G U67C   0.35
19        A15G U58A   0.32
20         A5U U66C   0.45
21        C23U A28C   0.43
22        A18C C62U   0.39
23        C34G U51C   0.29
24        U41C U69C   0.57
25        G53A U72C   1.23
26        G19U G36A   0.18
27        C11U A75U   0.43
28        A35C U69C   0.46
29        G10A U67C   0.25
30        C11A C62U      0
31        A45C A75G   0.14
32         C4A G16U   0.62
33        U69C G70A   0.24
34        G42A U76G   0.26
35        A13U G24A   0.26
36         A3G U41G   0.17
37        G24U A75G   0.08
38         G8C A65G   0.38
39        U25G U41G   0.43
40        A28G C32A   0.13
41         A3G C23U   0.38
42        C11A G46C   0.13
43        U48A U76A    0.5
44        A20G C40A   0.23
45        A64G A65U   0.19
46        U51G U72A   0.91
47         A5G U48A   0.45
48        G36C U58C   0.14
49        G33C U51A   0.15
50        A18U U31C   0.26
51        A15C A45U   0.45
52        C17G A64U   0.17
53        C32A A56G   0.15
54        A20U A45C   0.12
55         G8A C14U   0.08
56        A18U U48C   0.28
57        U31C U60C   0.29
58         U1A A64G   0.84
59         G9A U51A   0.27
60        U31C U41G   0.34
61        A65G C79G   0.74
62        A15G C81G   1.09
63        C29U U74C   0.97
64        U60A G61U   0.38
65         G8A A35C   0.21
66        C11G A15G   0.58
67        G30U A47G   0.22
68        U67C A75U   0.26
69        A20U C44A   0.27
70        U60C U74C   0.79
71        G10A A18G   0.23
72        A13G U60A   0.43
73        C29G A56G   0.23
74        A28U A77G    0.8
75         A2U U54A   1.15
76         G7U A21U   0.34
77        A28G C68U   0.48
78         G7U G30A   0.16
79          A5U G7U   0.35
80        G70U U74C   0.26
81        G53C C71U   0.57
82        A15G U54G   0.96
83        A21G C38A   0.33
84        G16U U60G   0.21
85         A2G A35U   0.37
86          C4U G8A   0.28
87        U51G A64G   0.85
88         A3G U78A   1.17
89        A56U A64G   0.51
90         U1A C32G   0.09
91         U1C C11G   0.43
